FYI, the data here is from patent US4980377A.

system: gravid White New Zealand female rabbits; assay: Teratogenicity in gravid White New Zealand rabbits; type: in vivo, rabbit; conditions: 5 mg/kg daily, day 5 to day 18 of gestation
Counter-ions that a name gives are not always drawn.
Provide the recorded Total foetuses (live) for the entries that follow.
Give the figure by itself; no unit, no explanation.

Req: For the molecule shown here, Nc1cccc(C(=O)CN2CCOCC2)c1 [A 17, reference compound] , give the reported Total foetuses (live).
Resp: 77

Req: Which measured Total foetuses (live) value corresponds to CC(C(=O)c1ccc(N)cc1)N1CCCC1 (centres unmarked) [CRL 41 222, dihydrochloride] ?
Resp: 85

Req: Give the measured Total foetuses (live) of CC(C(=O)c1ccc(N)cc1)N(C)C (centres unmarked) .
Resp: 89

Req: Value lookup for Total foetuses (live); key = CC(NC(C)(C)C)C(=O)c1ccc(N)cc1 (centres unmarked)
Resp: 90

Req: Please look up its Total foetuses (live): CCNCCC(=O)c1ccc(N)cc1 [A 7, reference compound]
Resp: 80
